So I've got a bunch of binders here, and I need their pKd values.
# system.name: Recombinant bovine HSC70 (Stressgen) (bovine) (UniProt P19120)
# Sequence (P19120 whole entry): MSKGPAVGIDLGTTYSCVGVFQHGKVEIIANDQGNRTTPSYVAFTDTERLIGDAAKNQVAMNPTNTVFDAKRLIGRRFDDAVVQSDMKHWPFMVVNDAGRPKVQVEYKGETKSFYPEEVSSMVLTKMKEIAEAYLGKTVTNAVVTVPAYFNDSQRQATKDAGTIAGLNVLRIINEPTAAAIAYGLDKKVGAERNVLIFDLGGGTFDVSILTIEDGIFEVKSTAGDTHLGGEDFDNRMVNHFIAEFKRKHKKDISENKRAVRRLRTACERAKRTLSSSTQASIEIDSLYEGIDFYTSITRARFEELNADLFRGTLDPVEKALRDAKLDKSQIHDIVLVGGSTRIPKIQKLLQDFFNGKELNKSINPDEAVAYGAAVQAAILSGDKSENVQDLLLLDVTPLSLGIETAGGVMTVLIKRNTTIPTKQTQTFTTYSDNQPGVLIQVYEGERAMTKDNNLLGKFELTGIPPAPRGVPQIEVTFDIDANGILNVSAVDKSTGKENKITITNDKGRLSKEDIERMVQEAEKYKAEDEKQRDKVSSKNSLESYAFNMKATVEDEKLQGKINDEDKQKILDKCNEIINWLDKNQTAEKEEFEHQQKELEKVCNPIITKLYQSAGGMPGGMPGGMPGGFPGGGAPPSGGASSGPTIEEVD
# assay.explanation: SPR (BIAcore 3000), bovine HSC70 immobilized, peptide at 12.5 µM, 1:1 Langmuir fit
Where no end group is shown, it is not given here. [ ]: non-standard residue; d: D form. Met(O) = CS(=O)CC[C@H](N)C(=O)O; pS = N[C@@H](COP(=O)(O)O)C(=O)O
Give bare numbers, as −log10 of the molar value.

>  <binder>
RIHMVYSKR[pS]GKPRGYAFIEY [P140 peptide (peptide consisting of SEQ ID NO: 1, in which serine at position 10 is phosphorylated)]

>  <pKd>
5.16

$$$$

# ---- query binder ----
Endpoint output: pKd of RIH[Met(O)]VYSKR[pS]GKPRGYAFIEY . Value?
5.72
